These entries and their values trace back to paper PMC9482650.

# system-name: GRASP, Q7Z6J2
# Sequence (Q7Z6J2 96-193): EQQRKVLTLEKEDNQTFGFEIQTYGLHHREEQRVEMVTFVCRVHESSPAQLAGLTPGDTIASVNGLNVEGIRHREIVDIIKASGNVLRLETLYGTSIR
# assay-protocol: holdup assay
# Design: key: below the threshold = too weak to quantify, mostly under pKd 3.1 to 4
# run-conditions: plain residues with an end cap or a label only (N-terminal biotin on a linker: ado-ado)
endpoint: pKd

AHGSTRDQSI [KCNB1, Q14721] | below the threshold
ATKDKKITTV [EXOC4, Q96A65] | 3.95
DYSNLRETDI [ADRA1D, P25100] | below the threshold
PGKKPEDSRV [SLCO2B1, O94956] | below the threshold
QQGLLPHSSC [TYRO3, Q06418] | 3.97
QLGSPTADLA [SIPA1, Q96FS4] | below the threshold

Given QKASRNESTF [POLR1D, P0DPB6] , respond with its pKd.
below the threshold
